Test system: tet operator sequence
TEST: β-galactosidase activity of a tetracycline-regulated promoter in transformed E. coli with revTetR, in the presence and absence of anhydrotetracycline (atc)
Type: cell-based, Escherichia coli
CONDITIONS: RevTetR isolate cultured in the presence of anhydrotetracycline (ATC)
molecules and their reported β-Galactosidase Activity, Cultured With ATC
Respond using a number only.

QUERY: I have this molecule here, TetRrev22/5: revTetR(BD) E15V L17A E19D (protein, Modified tetracycline repressor, revTetR(BD) E15V L17A E19D) MSRLDKSKVINSALVLANDVGIEGLTTRKLAQKLGVEQPTLYWHVKNKRALLDALAVEILARHHDYSLPAAGESWQSFLRNNAMSFRRALLRYRDGAKVHLGTRPDEKQYDTVETQLRFMTENGFSLRDGLYAISAVSHFTLGAVLEQQEHTAALTDRPAAPDENLPPLLREALQIMDSDDGEQAFLHGLESLIRGFEVQLTALLQIV , and I need its recorded β-Galactosidase Activity, Cultured With ATC.
RESULT: 0.9755

---
QUERY: I have this molecule here, TetRrev1/34: revTetR(BD) L17S E23K (protein, Modified tetracycline repressor, revTetR(BD) L17S E23K) MSRLDKSKVINSALELSNEVGIKGLTTRKLAQKLGVEQPTLYWHVKNKRALLDALAVEILARHHDYSLPAAGESWQSFLRNNAMSFRRALLRYRDGAKVHLGTRPDEKQYDTVETQLRFMTENGFSLRDGLYAISAVSHFTLGAVLEQQEHTAALTDRPAAPDENLPPLLREALQIMDSDDGEQAFLHGLESLIRGFEVQLTALLQIV , and I need its recorded β-Galactosidase Activity, Cultured With ATC.
RESULT: 0.9226
